Assay Text: Oral bioavailability in mouse at 2 mg/kg
Format: ADME, organism-based
Stated Conditions: in vivo
Assay Readout: bioavailability

• CCOc1cc(N2CCC(O)CC2)ccc1Nc1ncc2c(n1)N(C)c1ccccc1C(=O)N2C = 68%
